B1: tRNA (parent)
chain: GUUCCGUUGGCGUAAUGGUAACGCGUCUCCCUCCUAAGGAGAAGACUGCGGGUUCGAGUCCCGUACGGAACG

variants of: B1; experiment: yeast fitness relative to wild type (ratio to wild type); higher = fitter; tRNA-Arg(CCU), competitive growth, 37 C, YPD
Variants at the floor of the assay were thinned out.
assay_metric: yeast fitness

These recorded examples may help you get a feel for the data.
G9A A14U C46G C55U A69C | ≤ 0.5
A21C G38A G58C | 0.503

What does the data say about its yeast fitness? Entry: U7C C29A A65G
≤ 0.5

Given the variant C31G A40G C46A , what is its reported yeast fitness?
0.618

What measured yeast fitness goes with G18C G25C U28G A42G ?
≤ 0.5

Dear colleague, I am looking for the recorded yeast fitness of the following variant: U7C G10C C24U C46U G63C
≤ 0.5

Look up yeast fitness for this variant: U28C U35G A36C A65G C66A
≤ 0.5

Please look up its yeast fitness: C22U G52A C55A A69C
≤ 0.5

So what does the record say about yeast fitness for A14G G18C C60A C66U ?
≤ 0.5

Look up yeast fitness for this variant: U3G A36G G52A C66A A69U
≤ 0.5

yeast fitness for C4A C11U A45U C66U ?
≤ 0.5

// provenance: the RNAGym collection of RNA variant scans (doi:10.1126/science.aae0568)
